Just for reference, patent US11008317B2 is where these values come from.

# target-entity: myeloperoxidase (Homo sapiens)
# experiment-description: MPO Chlorination Assay (APF Assay)
# Assay type: biochemical
# test-context: potency range class, read-out: APF Assay IC50 value
property-label: IC50

{"compound": "CC(c1cccc(F)c1)c1cc(N)nc2[nH]nnc12 (racemic) [Example 30]", "IC50": "101 to 999 nM"}
{"compound": "Nc1cc(C(CCNCc2ccnc(C(F)(F)F)c2)c2ccccc2)c2nn[nH]c2n1 (centres unmarked) [Example 62]", "IC50": "101 to 999 nM"}
{"compound": "COCCN(CC[C@H](c1ccccc1)c1cc(N)nc2[nH]nnc12)C12CCC(c3ccccc3)(CC1)CC2 [Example 196]", "IC50": "1 to 100 nM"}
{"compound": "Cc1ccc(F)c(C(CCN[C@H]2CC[C@H](c3ccccc3)CC2)c2cc(N)nc3[nH]nnc23)c1 (some centres unmarked) [Example 168]", "IC50": "1 to 100 nM"}
{"compound": "Nc1cc([C@H](Cc2nc3c(-c4cccc(Cl)c4)cccc3[nH]2)c2ccccc2)c2nn[nH]c2n1 [Example 247]", "IC50": "1 to 100 nM"}

INPUT: Query: IC50; subject: CC(C)(CNCCC(c1ccccc1)c1cc(N)nc2[nH]nnc12)c1ccccc1 (centres unmarked) [Example 104]
OUTPUT: 101 to 999 nM

INPUT: Query: IC50; subject: COC(=O)c1cccc(CNCCC(c2ccccc2)c2cc(N)nc3[nH]nnc23)c1 (centres unmarked) [Example 59]
OUTPUT: 101 to 999 nM

INPUT: Query: IC50; subject: Nc1cc(C(CCN[C@@H]2C[C@@H](c3ccccc3)Cc3ccccc32)c2ccccc2)c2nn[nH]c2n1 (some centres unmarked) [Example 84]
OUTPUT: 101 to 999 nM

###

Documented IC50 across a set of compounds
# target-entity: myeloperoxidase (Homo sapiens, UniProt P05164)
# Sequence (P05164 49-745): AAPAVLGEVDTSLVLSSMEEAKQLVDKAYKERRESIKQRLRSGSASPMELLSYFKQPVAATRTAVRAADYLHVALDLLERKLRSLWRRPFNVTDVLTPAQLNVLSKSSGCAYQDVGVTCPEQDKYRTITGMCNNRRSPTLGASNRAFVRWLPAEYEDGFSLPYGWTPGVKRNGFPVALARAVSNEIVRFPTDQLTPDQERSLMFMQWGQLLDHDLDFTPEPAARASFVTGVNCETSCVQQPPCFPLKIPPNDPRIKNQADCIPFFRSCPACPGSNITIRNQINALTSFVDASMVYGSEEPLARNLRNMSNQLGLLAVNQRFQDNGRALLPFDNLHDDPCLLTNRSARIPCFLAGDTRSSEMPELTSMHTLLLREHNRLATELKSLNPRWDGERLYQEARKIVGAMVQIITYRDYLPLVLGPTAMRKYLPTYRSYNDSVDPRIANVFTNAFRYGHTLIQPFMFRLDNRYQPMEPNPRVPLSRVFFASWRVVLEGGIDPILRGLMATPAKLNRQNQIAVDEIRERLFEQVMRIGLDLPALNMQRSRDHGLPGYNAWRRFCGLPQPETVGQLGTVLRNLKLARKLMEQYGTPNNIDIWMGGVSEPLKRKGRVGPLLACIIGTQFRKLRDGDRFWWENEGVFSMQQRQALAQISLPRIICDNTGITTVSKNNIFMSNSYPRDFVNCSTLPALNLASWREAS
# experiment-description: MPO Peroxidation Assay (Amplex Red Assay)
# Assay type: biochemical
# test-context: potency range class, read-out: Amplex Red Assay IC50 value

Solved entries:
{"compound": "Nc1cc(C(CCN[C@H]2CC[C@H](c3ccncc3)CC2)c2ccccc2)c2nn[nH]c2n1 (stereo partly shown)", "IC50": "0.101 to 0.999 µM"}
{"compound": "Nc1cc([C@H](Cc2nc3c(-c4ccccc4)cc(C(F)(F)F)cc3[nH]2)c2ccccc2)c2nn[nH]c2n1", "IC50": "0.101 to 0.999 µM"}
{"compound": "Nc1cc(C(CCNC(=O)c2ccccc2)c2ccccc2)c2nn[nH]c2n1 (stereo not shown)", "IC50": "0.101 to 0.999 µM"}
{"compound": "N#Cc1ccc(C(CCN[C@H]2CC[C@H](c3ccccc3)CC2)c2cc(N)nc3[nH]nnc23)cc1 (stereo partly shown)", "IC50": "0.101 to 0.999 µM"}
{"compound": "Nc1cc(C(CCNCC23CC4CC(CC(C4)C2)C3)c2ccccc2)c2nn[nH]c2n1 (stereo not shown)", "IC50": "0.101 to 0.999 µM"}
{"compound": "CC1C[C@H](NCCC(c2ccccc2)c2cc(N)nc3[nH]nnc23)c2ccccc21 (stereo partly shown) [Example 99]", "IC50": "0.101 to 0.999 µM"}

INPUT: Query: IC50; subject: Nc1cc([C@H](CCCN2CCCC(c3ccccc3)CC2)c2ccccc2)c2nn[nH]c2n1 (stereo partly shown)
OUTPUT: 0.101 to 0.999 µM

INPUT: Query: IC50; subject: Nc1cc(C(CCN[C@H]2CC[C@H](c3ccc(Cl)cc3)CC2)c2ccccc2)c2nn[nH]c2n1 (stereo partly shown)
OUTPUT: 0.101 to 0.999 µM

INPUT: Query: IC50; subject: Nc1cc(C(CCN2CCC(c3ccccc3)CC2)c2ccccc2)c2nn[nH]c2n1 (stereo not shown)
OUTPUT: 1 to 10 µM
